# assayNotes: Cytotoxicity against human hepatoma cells assessed as decrease in RNA level after 3 days by RT-PCR analysis
# Type: cell-based
# details: human hepatoma cells
# Lookup of reported CC50 at 72 h keyed by entry
propertyMeasured: CC50 at 72 h

chemSmiles: Nc1nc(Cl)c(-c2nc3ccc(F)cc3s2)c(N[C@@H]2C[C@H](CO)[C@@H](O)[C@H]2O)n1
observedMeasurement: > 25 µM
//
chemSmiles: CNc1nc(C)c(-c2nc3ccccc3s2)c(N[C@@H]2C[C@H](CO)[C@@H](O)[C@H]2O)n1
observedMeasurement: > 25 µM
//
chemSmiles: Cc1nc(NCC(F)(F)F)nc(N[C@@H]2C[C@H](CO)[C@@H](O)[C@H]2O)c1-c1nc2ccccc2s1
observedMeasurement: > 25 µM
//
chemSmiles: Cc1nc(NCCNS(C)(=O)=O)nc(N[C@@H]2C[C@H](CO)[C@@H](O)[C@H]2O)c1-c1nc2ccccc2s1
observedMeasurement: > 25 µM
//
chemSmiles: Nc1ncc(-c2nc3ccccc3s2)c(N[C@@H]2C[C@H](CO)[C@@H](O)[C@H]2O)n1
observedMeasurement: > 25 µM
//
chemSmiles: Cc1nc(NCCCC(F)(F)F)nc(N[C@@H]2C[C@H](CO)[C@@H](O)[C@H]2O)c1-c1nc2ccccc2s1
observedMeasurement: 3 µM
//
chemSmiles: Cc1nc(NCCNC(=O)NC(C)(C)C)nc(N[C@@H]2C[C@H](CO)[C@@H](O)[C@H]2O)c1-c1nc2ccccc2s1
observedMeasurement: > 25 µM
//
chemSmiles: Cc1nc(NCc2ccncc2)nc(N[C@@H]2C[C@H](CO)[C@@H](O)[C@H]2O)c1-c1nc2ccccc2s1
observedMeasurement: 7 µM
//
chemSmiles: CCCNc1nc(C)c(-c2nc3ccccc3s2)c(N[C@@H]2C[C@H](CO)[C@@H](O)[C@H]2O)n1
observedMeasurement: > 25 µM
//
chemSmiles: Cc1nc(NC(C)(C)C)nc(N[C@@H]2C[C@H](CO)[C@@H](O)[C@H]2O)c1-c1nc2ccccc2s1
observedMeasurement: 12 µM
//
chemSmiles: Nc1nc(Cl)c(-c2ncco2)c(N[C@@H]2C[C@H](CO)[C@@H](O)[C@H]2O)n1
observedMeasurement: > 25 µM
//
chemSmiles: Cc1nc(NCc2ccccc2)nc(N[C@@H]2C[C@H](CO)[C@@H](O)[C@H]2O)c1-c1nc2ccccc2s1
observedMeasurement: 9 µM
//
chemSmiles: CNc1ccc2sc(-c3c(Cl)nc(N)nc3N[C@@H]3C[C@H](CO)[C@@H](O)[C@H]3O)nc2c1
observedMeasurement: 20 µM

====

# Lookup of reported CC50 at 72 h keyed by entry
# assayNotes: Cytotoxicity against human hepatoma cells after 3 days by MTS assay
# Assay type: cell-based
# details: human hepatoma cells

chemSmiles: CN(C)c1ccc2sc(-c3c(Cl)nc(N)nc3N[C@@H]3C[C@H](CO)[C@@H](O)[C@H]3O)nc2c1
op: =
CC50 at 72 h / µM: 21
//
chemSmiles: Cc1nc(NCCCC(F)(F)F)nc(N[C@@H]2C[C@H](CO)[C@@H](O)[C@H]2O)c1-c1nc2ccccc2s1
op: =
CC50 at 72 h / µM: 4
//
chemSmiles: Cc1nc(Nc2ccncc2)nc(N[C@@H]2C[C@H](CO)[C@@H](O)[C@H]2O)c1-c1nc2ccccc2s1
op: =
CC50 at 72 h / µM: 7
//
chemSmiles: Cc1nc(NCc2ccccn2)nc(N[C@@H]2C[C@H](CO)[C@@H](O)[C@H]2O)c1-c1nc2ccccc2s1
op: =
CC50 at 72 h / µM: 18
//
chemSmiles: Nc1ncc(-c2nc3ccccc3s2)c(N[C@@H]2C[C@H](CO)[C@@H](O)[C@H]2O)n1
op: >
CC50 at 72 h / µM: 25
//
chemSmiles: Nc1nc(Cl)c(-c2nccs2)c(N[C@@H]2C[C@H](CO)[C@@H](O)[C@H]2O)n1
op: >
CC50 at 72 h / µM: 25
//
chemSmiles: Nc1nc(Cl)c(-c2cc3ccccc3[nH]2)c(N[C@@H]2C[C@H](CO)[C@@H](O)[C@H]2O)n1
op: =
CC50 at 72 h / µM: 25
//
chemSmiles: CCOC(=O)NCCNc1nc(C)c(-c2nc3ccccc3s2)c(N[C@@H]2C[C@H](CO)[C@@H](O)[C@H]2O)n1
op: =
CC50 at 72 h / µM: 19

====

# Lookup of reported CC50 at 72 h keyed by entry
# assayNotes: Cytotoxicity against human hepatoma cells after 3 days by MTS assay
# Type: cell-based
# details: human hepatoma cells
propertyMeasured: CC50 at 72 h

chemSmiles: CN(C)c1ccc2nc(-c3c(Cl)nc(N)nc3N[C@@H]3C[C@H](CO)[C@@H](O)[C@H]3O)sc2c1
observedMeasurement: > 25 µM

chemSmiles: Nc1nc(Cl)c(-c2nc3ccc(F)cc3s2)c(N[C@@H]2C[C@H](CO)[C@@H](O)[C@H]2O)n1
observedMeasurement: > 25 µM

chemSmiles: Cc1nc(NCC(C)C)nc(N[C@@H]2C[C@H](CO)[C@@H](O)[C@H]2O)c1-c1nc2ccccc2s1
observedMeasurement: 10 µM

chemSmiles: COCCNc1nc(C)c(-c2nc3ccccc3s2)c(N[C@@H]2C[C@H](CO)[C@@H](O)[C@H]2O)n1
observedMeasurement: 15 µM

chemSmiles: COc1ccc2nc(-c3c(Cl)nc(N)nc3N[C@@H]3C[C@H](CO)[C@@H](O)[C@H]3O)sc2c1
observedMeasurement: > 25 µM

chemSmiles: Nc1nc(Cl)c(-c2cc3ccccc3o2)c(N[C@@H]2C[C@H](CO)[C@@H](O)[C@H]2O)n1
observedMeasurement: > 25 µM

chemSmiles: Nc1nc(Cl)c(-c2ccccn2)c(N[C@@H]2C[C@H](CO)[C@@H](O)[C@H]2O)n1
observedMeasurement: > 25 µM

chemSmiles: Cc1nc(NCC2CCC2)nc(N[C@@H]2C[C@H](CO)[C@@H](O)[C@H]2O)c1-c1nc2ccccc2s1
observedMeasurement: > 25 µM

chemSmiles: Cc1nc(NCCOC(C)C)nc(N[C@@H]2C[C@H](CO)[C@@H](O)[C@H]2O)c1-c1nc2ccccc2s1
observedMeasurement: 7 µM

chemSmiles: Cc1nc(NCc2nccs2)nc(N[C@@H]2C[C@H](CO)[C@@H](O)[C@H]2O)c1-c1nc2ccccc2s1
observedMeasurement: 21 µM

chemSmiles: CCNc1nc(C)c(-c2nc3ccccc3s2)c(N[C@@H]2C[C@H](CO)[C@@H](O)[C@H]2O)n1
observedMeasurement: > 25 µM

chemSmiles: CCCNc1nc(C)c(-c2nc3ccccc3s2)c(N[C@@H]2C[C@H](CO)[C@@H](O)[C@H]2O)n1
observedMeasurement: > 25 µM

chemSmiles: Cc1nc(N)nc(N[C@@H]2C[C@H](CO)[C@@H](O)[C@H]2O)c1-c1nc2ccccc2s1
observedMeasurement: 25 µM

chemSmiles: Cc1nc(NCC2CC2)nc(N[C@@H]2C[C@H](CO)[C@@H](O)[C@H]2O)c1-c1nc2ccccc2s1
observedMeasurement: 8 µM

chemSmiles: Nc1nc(Cl)c(-c2ncco2)c(N[C@@H]2C[C@H](CO)[C@@H](O)[C@H]2O)n1
observedMeasurement: > 25 µM

chemSmiles: Cc1nc(NCCN2CCOCC2)nc(N[C@@H]2C[C@H](CO)[C@@H](O)[C@H]2O)c1-c1nc2ccccc2s1
observedMeasurement: 25 µM

chemSmiles: Cc1nc(Nc2ncco2)nc(N[C@@H]2C[C@H](CO)[C@@H](O)[C@H]2O)c1-c1nc2ccccc2s1
observedMeasurement: > 25 µM

chemSmiles: Cc1nc(N[C@@H](C)C(F)(F)F)nc(N[C@@H]2C[C@H](CO)[C@@H](O)[C@H]2O)c1-c1nc2ccccc2s1
observedMeasurement: > 25 µM

chemSmiles: CCOCCNc1nc(C)c(-c2nc3ccccc3s2)c(N[C@@H]2C[C@H](CO)[C@@H](O)[C@H]2O)n1
observedMeasurement: 18 µM
